# assayExplanation: Ex vivo biodistribution of 177Lu-labeled ligands in PC-3 tumor-bearing mice
# statedConditions: mouse, fat, intravenous, 24 h pi, n = 5; read-out: Fat uptake
# Description: SPECT/CT imaging was conducted using an MI Labs (Houten, The Netherlands) U-SPECT-II/CT scanner with a custom-made ultra-high sensitivity big mouse collimator (2 mm pinhole size) following published procedure. The experiments were obtained in accordance with the same protocol established in the PET/CT imaging and ex vivo biodistributions section. The mice were used for SPECT/CT imaging and ex vivo biodistributions studies once the tumors reached a diameter of 5–8 mm. […]

| compound | tissue uptake at 24 h [%ID/g] |
| --- | --- |
| CC(C)C[C@H](NC(=O)[C@H](Cc1cnc[nH]1)N(C)C(=O)CNC(=O)[C@@H](NC(=O)[C@H](C)NC(=O)[C@H](Cc1c[nH]c2ccccc12)NC(=O)[C@H](CCC(N)=O)NC(=O)[C@@H](Cc1ccccc1)NC(=O)CN1CCC(NC(=O)CN2CCN(CC(=O)O)CCN(CC(=O)O)CCN(CC(=O)O)CC2)CC1)C(C)(C)C)C(=O)N1CC(F)(F)C[C@H]1C(N)=O [[^177Lu]Lu-LW02060, metal not drawn] | 0.01 |
| CC(C)C[C@@H](CN1CC(F)(F)C[C@H]1C(N)=O)NC(=O)[C@H](Cc1c[nH]cn1)NC(=O)CN(C)C(=O)[C@@H](NC(=O)[C@H](C)NC(=O)[C@H](Cc1c[nH]c2ccccc12)NC(=O)[C@H](CCC(N)=O)NC(=O)[C@@H](Cc1ccccc1)NC(=O)CN1CCC(NC(=O)CN2CCN(CC(=O)O)CCN(CC(=O)O)CCN(CC(=O)O)CC2)CC1)C(C)C [[^177Lu]Lu-LW02080, metal not drawn] | 0.01 |

---

As shown below, each of these compounds has a reported tissue uptake at 1 h value.
# assayExplanation: Ex vivo biodistribution of 68Ga-labeled tracers in PC-3 tumor-bearing mice
# statedConditions: mouse, liver, intravenous; 1 h pi, n = 4; read-out: Liver uptake
reportedMetric: tissue uptake at 1 h (%ID/g)

| compound | unit | result |
| --- | --- | --- |
| CC(C)C[C@@H](CN1CC(F)(F)C[C@H]1C(N)=O)NC(=O)[C@H](Cc1c[nH]cn1)NC(=O)CN(C)C(=O)[C@@H](NC(=O)[C@H](C)NC(=O)[C@H](Cc1c[nH]c2ccccc12)NC(=O)[C@H](CCC(N)=O)NC(=O)[C@@H](Cc1ccccc1)NC(=O)CN1CCC(NC(=O)CN2CCN(CC(=O)O)CCN(CC(=O)O)CCN(CC(=O)O)CC2)CC1)C(C)C [[^68Ga]Ga-LW02080, metal not drawn] | %ID/g | 0.31 |
| CC(C)C[C@H](NC(=O)[C@H](Cc1cnc[nH]1)N(C)C(=O)CNC(=O)[C@@H](NC(=O)[C@H](C)NC(=O)[C@H](Cc1c[nH]c2ccccc12)NC(=O)[C@H](CCC(N)=O)NC(=O)[C@@H](Cc1ccccc1)NC(=O)CN1CCC(NC(=O)CN2CCN(CC(=O)O)CCN(CC(=O)O)CCN(CC(=O)O)CC2)CC1)C(C)(C)C)C(=O)N1CC(F)(F)C[C@H]1C(N)=O [[^68Ga]Ga-LW02060, metal not drawn] | %ID/g | 0.37 |

---

# assayExplanation: Ex vivo biodistribution of 177Lu-labeled ligands in PC-3 tumor-bearing mice
# statedConditions: mouse, muscle, intravenous, 1 h pi, n = 5; read-out: Muscle uptake

| compound | unit | tissue uptake at 1 h |
| --- | --- | --- |
| CC(C)C[C@H](NC(=O)[C@H](Cc1cnc[nH]1)N(C)C(=O)CNC(=O)[C@@H](NC(=O)[C@H](C)NC(=O)[C@H](Cc1c[nH]c2ccccc12)NC(=O)[C@H](CCC(N)=O)NC(=O)[C@@H](Cc1ccccc1)NC(=O)CN1CCC(NC(=O)CN2CCN(CC(=O)O)CCN(CC(=O)O)CCN(CC(=O)O)CC2)CC1)C(C)(C)C)C(=O)N1CC(F)(F)C[C@H]1C(N)=O [[^177Lu]Lu-LW02060, metal not drawn] | %ID/g | 0.13 |
| CC(C)C[C@@H](CN1CC(F)(F)C[C@H]1C(N)=O)NC(=O)[C@H](Cc1c[nH]cn1)NC(=O)CN(C)C(=O)[C@@H](NC(=O)[C@H](C)NC(=O)[C@H](Cc1c[nH]c2ccccc12)NC(=O)[C@H](CCC(N)=O)NC(=O)[C@@H](Cc1ccccc1)NC(=O)CN1CCC(NC(=O)CN2CCN(CC(=O)O)CCN(CC(=O)O)CCN(CC(=O)O)CC2)CC1)C(C)C [[^177Lu]Lu-LW02080, metal not drawn] | %ID/g | 0.06 |
